- Tested on: SN12C renal
- experiment notes: NCI tumour cell line growth inhibition, 48 h
TGI for assorted compounds

[Q] Item: COc1ccc(-c2nc3ccccn3c2/C=C/C(=O)c2cc(OC)c(OC)c(OC)c2)cc1 Test system: SN12C renal Read-out: TGI Value: ?
[A] > 100 µM

---

- Test system: HOP-62 NSCLC
- experiment notes: NCI tumour cell line growth inhibition, 48 h; in the data active = GI50 below about 0.43 µM; inactive = the rest
Bench note: report the call from active, inactive

Check out these entries, answers already filled in.
[Q] Lab log entry: C[C@@H](CO)[C@@H]1CCC=C2CC[C@]3(C)[C@H](CC[C@@H]4[C@@]5(C)CCCNC(C)(C)[C@@H]5CC[C@]43C)[C@H]21 — outcome as called in the assay?
[A] inactive

[Q] What was the test verdict on COc1cc(/C=C/C(=O)c2c(C)nc3ccccc3c2C)ccc1OCCCOc1cc2c(cc1OC)C(=O)N1CCC[C@H]1C=N2 ?
[A] active

[Q] I'd appreciate the recorded outcome for CO/N=C(\C)COc1ccc2c(=O)c(-c3ccccc3)coc2c1 from this test.
[A] inactive

[Q] How was Cc1c(COc2cc(OCc3cccc(C#N)c3)c(CN3C[C@H](O)C[C@@H]3C(=O)O)cc2Cl)cccc1-c1ccc2c(c1)OCCO2 classified in this test?
[A] inactive

[Q] Please share the test call associated with COc1cc2c3c(n(CCCI)c(=O)c2cc1OC)-c1cc2c(cc1C3=O)OCO2 .
[A] inactive

[Q] // param item: CN(CC(=O)N(Cc1ccc(C2CCCCC2)cc1)c1ccc(C(=O)O)c(O)c1)S(=O)(=O)c1c(F)c(F)c(F)c(F)c1F ; yields the recorded call
[A] inactive

For the next question, use this compound.
[Q] Hey, what did the test say about Fc1ccc(Nc2nc3nonc3nc2Nc2ccc(F)cc2)cc1 ?
[A] active

---

- Test system: UACC-257 melanoma
- experiment notes: NCI tumour cell line growth inhibition, 48 h
GI50 values, listed per item

// below: answered compounds
[Q] So what does the record say about GI50 for O=C(NCc1ccc(Cn2c(=O)sn(-c3ccccc3)c2=O)cc1)OCc1ccc2c(Br)cc(Br)c(O)c2n1 ?
[A] 1.26 µM

[Q] Requested field: GI50. Item: CC1(C)[C@@H](O[C@@H]2OC[C@@H](O[C@@H]3O[C@H](CO)[C@@H](O)[C@H](O)[C@H]3O[C@@H]3OC[C@@H](O)[C@H](O)[C@H]3O)[C@H](O)[C@H]2O[C@@H]2O[C@H](CO)[C@@H](O)[C@H](O)[C@H]2O)CC[C@]2(C)[C@H]3CC[C@]45OC[C@@]6(CC[C@](C)(C=O)C[C@H]64)[C@H](O)C[C@@]5(C)[C@]3(C)CC[C@@H]12
[A] 0.92 µM

[Q] Fill blank: measured GI50 of the compound CN1CCN(c2ccc3nc(-c4ccc5nc(-c6ccc(OCCC(C)(C)C)cc6)[nH]c5c4)[nH]c3c2)CC1 is ____.
[A] 20.5 µM

[Q] # input compound: CCNC(=O)c1cc2c(-c3cc(C(C)(C)O)ccc3Oc3c(C)cc(F)cc3C)cn(C)c(=O)c2[nH]1 ; wanted: its GI50
[A] 2.27 µM

[Q] Consider the compound COc1cc(/C=C/C(=O)c2ccc(NC(=O)CN3CCN(c4cc5c(cc4F)c(=O)c(C(=O)O)cn5C4CC4)CC3)cc2)cc(OC)c1OC and give its measured GI50.
[A] 1.42 µM

More entries:
[Q] Recorded GI50 for C[C@@H](CO)[C@@H]1CCC=C2CC[C@]3(C)[C@H](CC[C@@H]4[C@@]5(C)CCCNC(C)(C)[C@@H]5CC[C@]43C)[C@H]21 , please?
[A] 2.59 µM

[Q] Data request, read-out GI50, for O=C1/C(=C/c2ccc(Cl)cc2)N=C(c2ccccc2)N1CCc1cccs1
[A] 36 µM

[Q] So what's the measured GI50 for this one? CCC1CCc2nc3sc(C(=O)Nc4cccc(F)c4)c(N)c3cc2C1 (stereo unspecified)
[A] > 100 µM

[Q] Entry O=C(Nc1ccccc1)NS(=O)(=O)c1ccc(-n2nc3c(c2-c2ccc(Cl)cc2)Cc2ccccc2-3)cc1 has what GI50?
[A] 37.1 µM

[Q] Entry Cc1c(COc2cc(OCc3cccc(C#N)c3)c(CN3C[C@H](O)C[C@@H]3C(=O)O)cc2Cl)cccc1-c1ccc2c(c1)OCCO2 has what GI50?
[A] 20.6 µM

[Q] Would you kindly share the measured GI50 for CCCCCCCCCCCC1CCCC(C)N1 (stereo unspecified) ?
[A] 10.3 µM

---

- Tested on: OVCAR-4 ovarian
- experiment notes: NCI tumour cell line growth inhibition, 48 h
result type: TGI

Before answering, review these 3 worked examples.
[Q] Look at this compound and give its reported TGI. CC1(C)[C@@H](O[C@@H]2OC[C@@H](O[C@@H]3O[C@H](CO)[C@@H](O)[C@H](O)[C@H]3O[C@@H]3OC[C@@H](O)[C@H](O)[C@H]3O)[C@H](O)[C@H]2O[C@@H]2O[C@H](CO)[C@@H](O)[C@H](O)[C@H]2O)CC[C@]2(C)[C@H]3CC[C@]45OC[C@@]6(CC[C@](C)(C=O)C[C@H]64)[C@H](O)C[C@@]5(C)[C@]3(C)CC[C@@H]12
[A] 1.66 µM

[Q] What value of TGI has been recorded for this entry: O=C(Cc1nccc2c1[nH]c1ccccc12)OC1C#CCSCC#C/C=C\1 (stereo unspecified)
[A] > 100 µM

[Q] Which value of TGI has been reported for CCOC(=O)C(=Cc1ccc(Oc2ccccc2)cc1)C(=O)OCC in the records?
[A] 22.9 µM

Further cases:
[Q] Entry CC1OC2(CC(OCc3ccccc3)C1OCc1ccccc1)OCCO2 (stereo unspecified) : reported TGI = ?
[A] > 100 µM

[Q] Entry COc1ccc(Cn2cc3c(c2-c2ccc(OC)cc2)CCc2cnoc2-3)cc1 : reported TGI = ?
[A] > 100 µM

[Q] # input compound: c1ccc2c(c1)ncn2C1CCCCO1 (stereo unspecified) ; wanted: its TGI
[A] > 100 µM

---

- Test system: SNB-19 CNS
- experiment notes: NCI tumour cell line growth inhibition, 48 h
Listed here are compounds together with their documented GI50.

[Q] Form field: reported GI50 of COc1ccc(OC)c(/C=C(/C)[N+](=O)[O-])c1
[A] 9.52 µM

[Q] Endpoint output: GI50 of COc1cc2c(cc1Nc1nc(Nc3ccsc3C(N)=O)c3cc[nH]c3n1)N(C(=O)CN(C)C)CCC2(C)C . Value?
[A] 3.62 µM

[Q] Give the measured GI50 of COc1cc(Nc2ccnc(NCCCNc3ccnc4cc(Cl)ccc34)n2)cc(OC)c1 .
[A] 2.32 µM

[Q] Item under review: O=C(Nc1ccccc1)NS(=O)(=O)c1ccc(-n2nc3c(c2-c2ccc(Cl)cc2)Cc2ccccc2-3)cc1 . Reported GI50?
[A] 61.5 µM

[Q] Form field: reported GI50 of CC1(C)[C@@H](O[C@@H]2OC[C@@H](O[C@@H]3O[C@H](CO)[C@@H](O)[C@H](O)[C@H]3O[C@@H]3OC[C@@H](O)[C@H](O)[C@H]3O)[C@H](O)[C@H]2O[C@@H]2O[C@H](CO)[C@@H](O)[C@H](O)[C@H]2O)CC[C@]2(C)[C@H]3CC[C@]45OC[C@@]6(CC[C@](C)(C=O)C[C@H]64)[C@H](O)C[C@@]5(C)[C@]3(C)CC[C@@H]12
[A] 0.872 µM

[Q] Given the entry COc1ccc(-c2nc3ccccn3c2/C=C/C(=O)c2cc(OC)c(OC)c(OC)c2)cc1 , report its measured GI50.
[A] 25.2 µM

[Q] Reported GI50 for COc1cc2c(cc1C)NC(=O)/C2=C\c1cccc(Oc2ccccc2)c1 : what is it?
[A] 14.3 µM

---

- System: RPMI-8226 leukemia
- experiment notes: NCI tumour cell line growth inhibition, 48 h
Property: TGI; scope: individual molecules

[Q] Report TGI for CCOC(=O)C(C(=S)Nc1ccccc1)c1nn2c(=O)cc(C)nc2s1 (stereo unspecified) tested on RPMI-8226 leukemia.
[A] 67.5 µM

[Q] # query: TGI | item COC(=O)CCC(=O)CC(=O)C(=O)Nc1c(Cl)cc([N+](=O)[O-])cc1Cl | system: RPMI-8226 leukemia
[A] 88.1 µM

[Q] Please state recorded TGI (tested on RPMI-8226 leukemia) of COC1OC(COCc2ccc(Cl)cc2)C(OCc2ccc(Cl)cc2)C1N=[N+]=[N-] (stereo unspecified)
[A] > 100 µM

[Q] What TGI appears in the records for this molecule with RPMI-8226 leukemia? CCc1cccc(C(C)C)c1N1C(=O)C(=O)C(c2nc3ccccc3s2)C(=O)C1=O
[A] > 50 µM

Others:
[Q] Form: Entry = O=CC[C@H]1CCc2ccccc2C12CCC(=O)CC2 | System = RPMI-8226 leukemia | TGI = ____
[A] > 100 µM

[Q] // map CC1C[C@@H]2C(=O)NC(=O)[C@@H]2c2c1c1ccccc1n2C (stereo partly specified) to recorded TGI (system: RPMI-8226 leukemia)
[A] > 100 µM
